Value source: PubChem BioAssay (NCATS)

Tested on: PC15
PROTOCOL_DETAILS: qHTS profiling for inhibitors of Plasmodium falciparum proliferation (AID 504749); note: nearly all actives have a fitted effect of over 60% in size
TEST_SETTINGS: P. falciparum in erythrocytes, SYBR Green DNA, 72 h; series mostly up to 28.7 µM
Records with an inconclusive call do not appear. Active and inactive are the calls of the source. Calls come from the whole dose curve; as a rule, active = well fitted inhibition curve with a large enough effect; inconclusive = small, poorly fitted or top-dose-only effect; inactive = flat fitted curve, though single readings scatter.
Your response should consist of one outcome taken from true (1) = active, false (0) = inactive

> print(dat)
                                   compound  group.label
1  Cc1ccc(/C=C2/C(=O)C3(C)CCC2C3(C)C)cc1 (stereo not given)    false (0)

Outcome logged for CCCC(=O)O[C@]1(C(=O)COC(C)=O)CC[C@H]2C3C[C@H](F)C4=CC(=O)C=CC4(C)[C@@]3(F)[C@@H](O)CC21C (stereo not given in full) in this assay:
false (0)

Outcome logged for CCCCCCCCCCCCCCCC(=O)OC[C@H](O)[C@H]1OC[C@@H](O)[C@@H]1O in this assay:
false (0)

Outcome logged for NC(=O)C1CC2(NC(=O)NC2=O)c2cc(F)ccc2O1 (stereo not given) in this assay:
false (0)

Outcome logged for CCOC(=O)C(CCc1ccccc1)NC(C)C(=O)N1Cc2cc(OC)c(OC)cc2CC1C(=O)O (stereo not given) in this assay:
true (1)

###

PROTOCOL_DETAILS: qHTS for Inhibitors of Plasmodium falciparum (CP250) proliferation (AID 504320);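 note: plate controls were DMSO vehicle for no effect and 0.29 µM artemisinin control for full effect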
TEST_SETTINGS: P. falciparum CP250 in erythrocytes, SYBR Green DNA, 72 h; series mostly up to 6.7 µM
Inconclusive results are not listed. The source made the active and inactive calls. Calls follow the shape of the dose curve; as a rule, active = well fitted inhibition curve with a large enough effect; inconclusive = small, poorly fitted or top-dose-only effect, or effect the other way; inactive = flat fitted curve, though single readings scatter.
MEASURED_ATTRIBUTE: outcome

Some solved cases for reference:
> print(dat)
                                    molecule  measured.attribute  readout.value
 1  C[C@H]1Cc2c(-c3ccccc3)nc3c(c2CO1)CN(S(=O)(=O)c1ccc(C#N)cc1)CC3             outcome       inactive
 2  C=CC1=C2C=C(C3CC3)N(CCCCO)C=C2C(=O)C(C)(OC(=O)c2ccco2)C1=O (centres undefined)             outcome       inactive
 3  CCOC(=O)CN1C(=O)NC(c2cccc(C(F)(F)F)c2)C(C(C)=O)=C1C (centres undefined)             outcome       inactive
 4  COc1cccc(CC(=O)N2CCc3nc(-c4ccccc4)c4c(c3C2)CO[C@@H](C)C4)c1             outcome       inactive
 5  COC(=O)CCC(=O)OC1(C)C(=O)C2=CN(Cc3ccc4c(c3)OCO4)C(c3ccc(OC)cc3)=CC2=C(Br)C1=O (centres undefined)             outcome       inactive
 6  COC/C=C/C1=CC2=CC(=O)C(C)(OC(=O)c3cnc4ccccc4n3)C(=O)C2=CN1c1ccc(CO)cc1 (centres undefined)             outcome       inactive
 7  CCOC(=O)CN1C(=O)N[C@@H](CCc2ccccc2)C(C(C)=O)=C1C             outcome       inactive
 8  Cc1ccccc1Nc1oc(-c2ccccc2)nc1-c1ccc(C(F)(F)F)cc1             outcome       inactive
 9     Fc1ccccc1-c1nc(-c2ccccc2)oc1NC1CCCCC1             outcome       inactive
10  CCCCC1=CC2=CC(=O)C(C)(OC(=O)CC)C(=O)C2=CN1C1CCCCC1 (centres undefined)             outcome       inactive

We now examine a further molecule.
Please report outcome for the following molecule: COC(=O)N[C@@H](c1cccc(C)c1)[C@]1(C(C)=O)CCCC1=O
inactive
